- System: SK-MEL-28
- METHOD_SUMMARY: SRB colorimetric assay of cell growth and viability, SK-MEL-28
- Assay type: cell-based, human
- CONDITION_SUMMARY: 48 hours exposure, SRB; read-out: LC50 MEL-28
Where a SMILES comes first, the peptide text is derived from it. Bridges are numbered along the chain shown (N, C = ends). [ ]: non-standard residue; d: D form. The star is where a group is joined. d(aIle) = CC[C@H](C)[C@@H](N)C(=O)O; d(aThr) = C[C@@H](O)[C@@H](N)C(=O)O; hCha = N[C@@H](CCC1CCCCC1)C(=O)O; Hexanoyl(5-Me) = CC(C)CCCC(=O)*; Orn = NCCC[C@H](N)C(=O)O; Dhb = C/C=C(\N)C(=O)O
QUANTITY_NAME: CC50 (µM)
// units = µM; emit number, no label

Prompt line: Specify reported CC50 for the molecule shown: C/C=C1\NC(=O)[C@H](Cc2ccc(F)cc2)NC(=O)[C@@H](C(C)C)NC(=O)[C@@H]([C@@H](C)CC)NC(=O)[C@H](NC(=O)[C@H](NC(=O)[C@H](CCCN)NC(=O)[C@H]2CCCN2C(=O)[C@H](NC(=O)[C@@H](NC(=O)[C@@H](NC(=O)[C@H](NC(=O)CC[C@@H](C)CC)C(C)C)[C@@H](C)O)C(C)C)C(C)C)[C@@H](C)CC)[C@@H](C)OC(=O)[C@H](C(C)C)NC1=O [Compound 74, [Phe(4-F)^3, (4S)-MeHex^14]-KF]
Response line: 3.23

Prompt line: Give the value of CC50 reported for the following: C/C=C1\NC(=O)[C@H](Cc2ccccc2)NC(=O)[C@@H](C(C)C)NC(=O)[C@@H]([C@@H](C)CC)NC(=O)[C@H](NC(=O)[C@H](NC(=O)[C@H](CCCNC(=O)C(F)(F)F)NC(=O)[C@H]2CCCN2C(=O)[C@H](NC(=O)[C@@H](NC(=O)[C@@H](NC(=O)[C@H](NC(=O)CC[C@@H](C)CC)C(C)C)[C@@H](C)OC(=O)C(F)(F)F)C(C)C)C(C)C)[C@@H](C)CC)[C@@H](C)OC(=O)[C@H](C(C)C)NC1=O
Response line: 3.28

Prompt line: Give CC50 for C/C=C1\NC(=O)[C@H](CCC2CCCCC2)NC(=O)[C@@H](C(C)C)NC(=O)[C@@H]([C@@H](C)CC)NC(=O)[C@H](NC(=O)[C@H](NC(=O)[C@H](CCCN)NC(=O)[C@H]2CCCN2C(=O)[C@H](NC(=O)[C@@H](NC(=O)[C@@H](NC(=O)[C@H](NC(=O)CCCC(C)C)C(C)C)[C@@H](C)O)C(C)C)C(C)C)[C@@H](C)CC)[C@@H](C)OC(=O)[C@H](C(C)C)NC1=O [Compound 63] ({Hexanoyl(5-Me)}-[dV]TV[dV][dP][Orn][d(aIle)][d(aThr)][d(aIle)][dV][hCha][Dhb]V; ester 8-C)
Response line: 3.79
